System: Mouse liver microsome
measurement-protocol: Liver microsomal stability assay, mouse
Type: in vitro ADME
Design: key: A: the percentage of a compound remains is greater than that of its deuterium non-enriched counterpart; B: a result otherwise
condition-label: 40 μM, 37° C., 30 min, 1 mg/ml microsome proteins; class relative to deuterium non-enriched counterpart
Counter-ions that a name gives are not always drawn.
measured-quantity: % of compound remained at the 30th minutes, Mouse liver microsome

See these solved cases before continuing.
Cl.[2H]C([2H])(c1ccnc(N)c1)n1ccc2c(NC(=O)Nc3cc(Cl)ccc3OC)cccc21 ... A
[2H]C([2H])(c1ccnc2[nH]ccc12)N1CCc2c(NC(=O)Nc3cc(Cl)ccc3OC)cccc21 [Example 9, hydrochloride] ... A
[2H]C(c1c[nH]c2ncccc12)N1CCc2c(NC(=O)Nc3cc(Cl)ccc3OC)cccc21 (centres unmarked) ... A
[2H]C(c1c[nH]c2ncccc12)n1ccc2c(NC(=O)Nc3cc(Cl)ccc3OC)cccc21 (centres unmarked) ... A
[2H]C([2H])([2H])Oc1ccc(Cl)cc1NC(=O)Nc1cccc2c1ccn2Cc1ccnc(N)c1 ... B
[2H]C([2H])(c1ccnc2[nH]ccc12)N1CCc2c(NC(=O)Nc3cccc(C)c3)cccc21 [Example 13, hydrochloride] ... A
[2H]C([2H])(c1ccnc(N)c1)N1CCc2c(NC(=O)Nc3cc(Cl)ccc3OC)cccc21 ... A

Could you now look at the following molecule, please?
// lookup % of compound remained at the 30th minutes, Mouse liver microsome | system=Mouse liver microsome | key= [2H]C(c1c[nH]c2ncccc12)N1CCc2c(NC(=O)Nc3cc(Cl)ccc3F)cccc21 (centres unmarked)
B

---

study-target: EphB4 (Homo sapiens, UniProt P54760)
Construct: EphB4 autophosphorylation in PC-3 human prostate cancer cells; host or cells: PC-3 human prostate cancer cells
Sequence (P54760 16-987): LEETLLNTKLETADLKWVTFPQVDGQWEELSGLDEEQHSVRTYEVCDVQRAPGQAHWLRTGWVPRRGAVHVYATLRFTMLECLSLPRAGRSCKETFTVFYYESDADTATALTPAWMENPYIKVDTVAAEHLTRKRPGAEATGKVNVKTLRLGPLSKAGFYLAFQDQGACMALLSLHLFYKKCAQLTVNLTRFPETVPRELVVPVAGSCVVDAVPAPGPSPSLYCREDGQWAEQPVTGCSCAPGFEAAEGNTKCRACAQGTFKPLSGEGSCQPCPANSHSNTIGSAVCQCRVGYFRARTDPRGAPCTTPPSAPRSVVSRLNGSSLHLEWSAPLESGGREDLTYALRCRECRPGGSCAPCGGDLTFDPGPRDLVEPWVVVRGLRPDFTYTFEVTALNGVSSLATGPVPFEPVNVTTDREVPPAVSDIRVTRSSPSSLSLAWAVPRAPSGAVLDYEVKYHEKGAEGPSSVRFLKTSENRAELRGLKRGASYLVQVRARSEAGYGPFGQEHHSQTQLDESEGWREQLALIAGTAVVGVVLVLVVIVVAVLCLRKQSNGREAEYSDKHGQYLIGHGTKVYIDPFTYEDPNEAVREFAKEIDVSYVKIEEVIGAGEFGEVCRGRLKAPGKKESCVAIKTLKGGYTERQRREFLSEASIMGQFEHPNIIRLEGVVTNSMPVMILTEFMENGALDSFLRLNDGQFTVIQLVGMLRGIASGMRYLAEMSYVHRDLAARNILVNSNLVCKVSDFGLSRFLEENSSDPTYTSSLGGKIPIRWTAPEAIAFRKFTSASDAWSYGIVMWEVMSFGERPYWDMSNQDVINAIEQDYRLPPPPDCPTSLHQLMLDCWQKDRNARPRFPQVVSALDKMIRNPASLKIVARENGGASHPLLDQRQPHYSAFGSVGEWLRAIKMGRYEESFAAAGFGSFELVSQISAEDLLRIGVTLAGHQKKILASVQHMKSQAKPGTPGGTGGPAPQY
measurement-protocol: EphB4 cell-based assay (quantitative Western blotting, PC-3 cells, Ephrin-B2 stimulated)
condition-label: compound at 100 nM; PC-3 human prostate cancer cells; Ephrin-B2 stimulation; read-out: % EphB4 kinase activity remains
Procedure: A standard image-based quantitative Western blotting assay for EphB4 kinase activity can be used to test or screen the compounds of this invention and to identify EphB4 antagonists. […] A compound to be tested was first dissolved in DMSO to a concentration of 10 mM and stored at −20° C. […] The phosphor-EphB4 was detected based on its molecular weight and with anti-phosphor protein antibody PY-20 in cell lysate from approximately 5×10^5 PC-3 cells by Western blotting followed by imaging quantification. […]
Where a name gives a salt, the structure may show the parent alone.
measured-quantity: remaining activity at 0.1 µM

See these solved cases before continuing.
[2H]C([2H])(c1ccnc2[nH]ccc12)n1ccc2c(NC(=O)Nc3cc(Cl)ccc3OC)cccc21 [Example 10, hydrochloride] ... ≥ 70%
Cl.[2H]C([2H])([2H])Oc1ccc(Cl)cc1NC(=O)Nc1cccc2c1CCN2C([2H])([2H])c1ccnc2[nH]ccc12 [Example 7] ... ≥ 70%
[2H]C(c1c[nH]c2ncccc12)n1ccc2c(NC(=O)Nc3cc(Cl)ccc3OC([2H])([2H])[2H])cccc21 (centres unmarked) [Example 16] ... ≥ 70%
[2H]C(c1c[nH]c2ncccc12)N1CCc2c(NC(=O)Nc3cc(Cl)ccc3OC)cccc21 (centres unmarked) [Example 17] ... < 70%
[2H]C(c1c[nH]c2ncccc12)n1ccc2c(NC(=O)Nc3cccc(C)c3)cccc21 (centres unmarked) [Example 22] ... ≥ 70%

Fill blank: measured remaining activity at 0.1 µM of the molecule [2H]C(c1c[nH]c2ncccc12)N1CCc2c(NC(=O)Nc3cc(Cl)ccc3OC([2H])([2H])[2H])cccc21 (centres unmarked) [Example 15] is ____.
≥ 70%

Fill blank: measured remaining activity at 0.1 µM of the molecule [2H]C([2H])([2H])Oc1ccc(Cl)cc1NC(=O)Nc1cccc2c1CCN2Cc1ccnc(N)c1 [Example 5] is ____.
< 70%

Fill blank: measured remaining activity at 0.1 µM of the molecule [2H]C(c1c[nH]c2ncccc12)n1ccc2c(NC(=O)Nc3cc(Cl)ccc3F)cccc21 (centres unmarked) [Example 20] is ____.
≥ 70%

---

study-target: EphB4 (Homo sapiens)
Construct: EphB4 autophosphorylation in PC-3 human prostate cancer cells; host or cells: PC-3 human prostate cancer cells
measurement-protocol: EphB4 cell-based assay (quantitative Western blotting, PC-3 cells, Ephrin-B2 stimulated)
condition-label: compound at 100 nM; PC-3 human prostate cancer cells; Ephrin-B2 stimulation; read-out: % EphB4 kinase activity remains
Where a name gives a salt, the structure may show the parent alone.
measured-quantity: remaining activity at 0.1 µM

See these solved cases before continuing.
[2H]C([2H])(c1ccnc(N)c1)N1CCc2c(NC(=O)Nc3cc(Cl)ccc3OC)cccc21 [Example 1] ... < 70%
[2H]C([2H])(c1ccnc2[nH]ccc12)n1ccc2c(NC(=O)Nc3cc(Cl)ccc3F)cccc21 [Example 12, hydrochloride] ... < 70%
[2H]C(c1c[nH]c2ncccc12)N1CCc2c(NC(=O)Nc3cc(Cl)ccc3F)cccc21 (centres unmarked) [Example 19] ... ≥ 70%
[2H]C([2H])([2H])Oc1ccc(Cl)cc1NC(=O)Nc1cccc2c1ccn2C([2H])([2H])c1ccnc(N)c1 [Example 4] ... < 70%
[2H]C([2H])(c1ccnc2[nH]ccc12)N1CCc2c(NC(=O)Nc3cc(Cl)ccc3OC)cccc21 [Example 9, hydrochloride] ... ≥ 70%

Fill blank: measured remaining activity at 0.1 µM of the molecule Cl.[2H]C([2H])([2H])Oc1ccc(Cl)cc1NC(=O)Nc1cccc2c1ccn2C([2H])([2H])c1ccnc2[nH]ccc12 [Example 8] is ____.
≥ 70%

Fill blank: measured remaining activity at 0.1 µM of the molecule [2H]C([2H])([2H])Oc1ccc(Cl)cc1NC(=O)Nc1cccc2c1CCN2C([2H])([2H])c1ccnc(N)c1 [Example 3] is ____.
< 70%

Fill blank: measured remaining activity at 0.1 µM of the molecule [2H]C(c1c[nH]c2ncccc12)n1ccc2c(NC(=O)Nc3cc(Cl)ccc3OC)cccc21 (centres unmarked) [Example 18] is ____.
< 70%

Fill blank: measured remaining activity at 0.1 µM of the molecule [2H]C([2H])(c1ccnc2[nH]ccc12)N1CCc2c(NC(=O)Nc3cc(Cl)ccc3F)cccc21 [Example 11, hydrochloride] is ____.
< 70%

Fill blank: measured remaining activity at 0.1 µM of the molecule [2H]C(c1c[nH]c2ncccc12)N1CCc2c(NC(=O)Nc3cccc(C)c3)cccc21 (centres unmarked) [Example 21] is ____.
≥ 70%

---

study-target: PDGFRβ (Homo sapiens, UniProt P09619)
Construct: expressed in transfected cells; host or cells: CHO cells
Sequence (P09619 33-1106): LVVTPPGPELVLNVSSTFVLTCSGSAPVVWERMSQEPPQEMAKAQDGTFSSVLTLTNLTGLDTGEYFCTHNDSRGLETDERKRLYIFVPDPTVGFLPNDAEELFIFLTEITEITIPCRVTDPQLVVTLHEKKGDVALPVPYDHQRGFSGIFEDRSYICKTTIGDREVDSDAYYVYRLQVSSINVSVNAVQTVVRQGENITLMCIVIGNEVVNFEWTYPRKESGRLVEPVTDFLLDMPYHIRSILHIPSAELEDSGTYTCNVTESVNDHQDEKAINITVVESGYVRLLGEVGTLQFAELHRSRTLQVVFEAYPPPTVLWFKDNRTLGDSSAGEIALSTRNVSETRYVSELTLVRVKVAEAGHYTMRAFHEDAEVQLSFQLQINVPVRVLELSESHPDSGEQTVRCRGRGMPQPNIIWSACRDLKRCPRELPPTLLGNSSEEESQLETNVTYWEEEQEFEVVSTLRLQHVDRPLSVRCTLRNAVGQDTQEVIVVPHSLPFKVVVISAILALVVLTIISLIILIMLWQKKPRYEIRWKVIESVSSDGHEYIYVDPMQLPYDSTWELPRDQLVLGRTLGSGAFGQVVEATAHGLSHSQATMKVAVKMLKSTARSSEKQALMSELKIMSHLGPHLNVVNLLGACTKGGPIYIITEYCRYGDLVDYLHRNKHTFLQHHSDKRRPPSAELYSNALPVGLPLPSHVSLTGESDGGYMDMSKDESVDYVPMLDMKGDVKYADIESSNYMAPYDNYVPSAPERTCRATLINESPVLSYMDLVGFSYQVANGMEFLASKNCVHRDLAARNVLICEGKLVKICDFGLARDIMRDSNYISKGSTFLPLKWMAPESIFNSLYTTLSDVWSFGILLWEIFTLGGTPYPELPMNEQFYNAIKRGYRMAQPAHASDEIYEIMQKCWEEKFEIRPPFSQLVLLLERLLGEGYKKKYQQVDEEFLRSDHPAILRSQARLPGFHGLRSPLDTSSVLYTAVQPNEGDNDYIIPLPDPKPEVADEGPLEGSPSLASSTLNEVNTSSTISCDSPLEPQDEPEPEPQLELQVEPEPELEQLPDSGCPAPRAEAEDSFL
measurement-protocol: PDGFRβ cell-based assay (ELISA, phosphor-/total PDGFRβ in transfected CHO cells)
condition-label: compound at 100 nM; CHO cells transfected with full length PDGFRβ; FBS stimulation; read-out: % PDGFRβ kinase activity remains
Where a name gives a salt, the structure may show the parent alone.
measured-quantity: remaining activity at 0.1 µM

See these solved cases before continuing.
[2H]C([2H])([2H])Oc1ccc(Cl)cc1NC(=O)Nc1cccc2c1ccn2C([2H])([2H])c1ccnc(N)c1 ... ≥ 70%
[2H]C([2H])(c1ccnc2[nH]ccc12)N1CCc2c(NC(=O)Nc3cc(Cl)ccc3F)cccc21 [Example 11, hydrochloride] ... < 70%
[2H]C([2H])([2H])Oc1ccc(Cl)cc1NC(=O)Nc1cccc2c1CCN2C([2H])([2H])c1ccnc(N)c1 ... ≥ 70%
[2H]C(c1c[nH]c2ncccc12)n1ccc2c(NC(=O)Nc3cc(Cl)ccc3OC)cccc21 (stereo not shown) ... < 70%
[2H]C([2H])(c1ccnc2[nH]ccc12)n1ccc2c(NC(=O)Nc3cc(Cl)ccc3F)cccc21 [Example 12, hydrochloride] ... ≥ 70%
[2H]C([2H])(c1ccnc(N)c1)N1CCc2c(NC(=O)Nc3cc(Cl)ccc3OC)cccc21 ... < 70%

Could you now look at the following compound, please?
Fill blank: measured remaining activity at 0.1 µM of the compound [2H]C([2H])(c1ccnc2[nH]ccc12)n1ccc2c(NC(=O)Nc3cc(Cl)ccc3OC)cccc21 [Example 10, hydrochloride] is ____.
≥ 70%

---

measurement-protocol: Oral bioavailability study, Group 1 (mice)
Type: in vivo, male ICR mice
condition-label: mouse, plasma; male ICR mice, 50 mg/kg oral, AUC to infinity oral vs intravenous
measured-quantity: bioavailability

Fill blank: measured bioavailability of the compound Cl.[2H]C([2H])(c1ccnc(N)c1)n1ccc2c(NC(=O)Nc3cc(Cl)ccc3OC)cccc21 is ____.
> 88%

---

measurement-protocol: Oral bioavailability study, Group 1 (mice)
Type: in vivo, male ICR mice
condition-label: mouse, whole blood; male ICR mice, 50 mg/kg oral
Description: Oral pharmacokinetic studies were performed on Example 2. Specifically, this compound was dissolved in PEG-400 (2:1 mixture of PEG400 and 0.01N HCL (v/v)) and administered orally to male ICR mice at a dose of 50 mg/kg. Mice blood was obtained via eyeball enucleation at 0.25, 0.5, 1, 2, 3, 4, 6, 8, 12 and 24 hours after administration. The concentration of Example 2 in blood was determined using appropriate internal standards and reverse phase HPLC with UV detection. […]
measured-quantity: half-life

Fill blank: measured half-life of the molecule Cl.[2H]C([2H])(c1ccnc(N)c1)n1ccc2c(NC(=O)Nc3cc(Cl)ccc3OC)cccc21 [Example 2] is ____.
2.3 to 3.5 h

The measurements presented in this section are drawn from patent US20130165475A1.
